target: Glucagon-like peptide 1 receptor (Homo sapiens); assay: qHTS of GLP-1 Receptor Inverse Agonists (Inhibition Mode); settings: HEK293 GLP-1R CRE-luciferase, luminescence, 24 h, GLP-1R form is constitutively active; series mostly up to 38.3 µM; also: nearly all actives have a fitted effect of over 55% in size
Among all 410,000 compounds or so, about 6,400 (1.6%) were called active. About 20% were inconclusive and are not listed. Calls follow the shape of the dose curve; as a rule, active = well fitted inhibition curve with a large enough effect; inconclusive = small, poorly fitted or top-dose-only effect; inactive = no such curve, though single readings can be large or run the other way. This excerpt belongs to a sample that is enriched for actives.
Labels: T (active), F (inactive)

compound | label-class
CC1(C)CN(Cc2cccnc2)C(=O)[C@H]1CC(=O)Nc1ccc(Br)cc1 | F
CC1(C(=O)NS(=O)(=O)c2ccccc2)CCN1C(=O)C1CCCCC1 (stereo unspecified) | F
COc1cccc(C(NC(C)=O)c2nc(-c3ccccc3OC)cs2)c1 (stereo unspecified) | F
Cc1nc2nc3c(cn2n1)C(=O)CC(c1ccccc1)C3 (stereo unspecified) | F
O=C1c2ccccc2C(=O)C1c1ccccc1F | F
CN(Cc1ccccc1)C(=O)COC(=O)c1ccccc1Nc1ccccc1 | T
CN(Cc1ccccc1)C(=O)COc1ccccc1 | F
COCCNC(=S)N/N=C/c1c(C)[nH]c2ccccc12 | F
CCOc1ccc(S(=O)(=O)NCCC(=O)NNC(=O)c2ccc(F)cc2)cc1 | F
O=C(O)c1cccc(NC(=S)N/N=C/c2c[nH]c3ccccc23)c1 | F
CC(C)CCNC(=O)c1[nH]c(C(F)(F)F)nc1-c1ccccc1 | F

----------
biological target: Glucagon-like peptide 1 receptor (Homo sapiens); test: qHTS of GLP-1 Receptor Inverse Agonists (Inhibition Mode); conditions: HEK293 GLP-1R CRE-luciferase, luminescence, 24 h, GLP-1R form is constitutively active; series mostly up to 38.3 µM; also: nearly all actives have a fitted effect of over 55% in size
The whole screen tested about 410,000 compounds, of which about 6,400 (1.6%) were called active. Roughly 20% stayed inconclusive and do not appear here. The call rests on the fitted dose curve; in most records, active means well fitted inhibition curve with a large enough effect; inconclusive means small, poorly fitted or top-dose-only effect; inactive means no such curve, though single readings can be large or run the other way. Many of the other results were omitted from the sample, so actives are more common in it than they were.
Labels: True = active, False = inactive

compound | label-class
CCc1cc(C(=O)N(CC)CC(=O)Nc2c(F)cccc2F)sc1C | False
COc1ccc(C2=Nc3ccccc3NC(=O)C2N(C(=O)c2cc3ccccc3[nH]2)c2ccccc2)cc1 (stereo not given) | False
CC[C@@H]1CC2=C(C(=O)OC(C)(C)O2)[C@@H](CC)O1 | False
COc1cccc2sc(N(CCCN(C)C)C(=O)C(c3ccccc3)c3ccccc3)nc12 | True
Cc1cc(C)c2nc(N(CCN(C)C)C(=O)/C=C/c3cccs3)sc2c1 | False

----------
target: Glucagon-like peptide 1 receptor (Homo sapiens) (UniProt P43220); assay: qHTS of GLP-1 Receptor Inverse Agonists (Inhibition Mode); settings: HEK293 GLP-1R CRE-luciferase, luminescence, 24 h, GLP-1R form is constitutively active; series mostly up to 38.3 µM; also: nearly all actives have a fitted effect of over 55% in size
Sequence (P43220 whole entry, looked up): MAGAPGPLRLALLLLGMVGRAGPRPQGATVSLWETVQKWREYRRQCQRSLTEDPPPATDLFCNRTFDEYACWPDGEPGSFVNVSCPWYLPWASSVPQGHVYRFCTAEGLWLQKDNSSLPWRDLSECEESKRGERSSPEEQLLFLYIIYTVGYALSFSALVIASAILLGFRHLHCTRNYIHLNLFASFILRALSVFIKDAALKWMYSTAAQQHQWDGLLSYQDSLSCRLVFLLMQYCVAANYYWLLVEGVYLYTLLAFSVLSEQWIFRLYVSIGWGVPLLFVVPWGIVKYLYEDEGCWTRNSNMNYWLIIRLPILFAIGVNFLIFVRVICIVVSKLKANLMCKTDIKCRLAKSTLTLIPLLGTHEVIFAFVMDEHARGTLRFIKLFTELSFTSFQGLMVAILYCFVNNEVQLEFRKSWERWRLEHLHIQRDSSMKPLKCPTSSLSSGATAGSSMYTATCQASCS
Among all 410,000 compounds or so, about 6,400 (1.6%) were called active. Inconclusive results (about 20%) are left out. Calls come from the whole dose curve; as a rule, active = well fitted inhibition curve with a large enough effect; inconclusive = small, poorly fitted or top-dose-only effect; inactive = no such curve, though single readings can be large or run the other way. Shown is part of a subset that was picked to be rich in actives.
Possible outcomes: active, inactive

compound | label-class
COC(=O)[C@H]1[C@H]2C[C@H]3c4[nH]c5ccccc5c4CCN3C[C@@H]2CC[C@@H]1O | inactive
COc1ccc(CCNC(=O)CN(c2ccccc2)S(=O)(=O)c2ccccc2)cc1 | inactive
COc1cccc(N2CCN(C(=O)CCCCCn3c(=O)[nH]c4ccccc4c3=O)CC2)c1 | inactive
CC(C)N(C(=O)[C@H]1C[C@H](CC(=O)NC(C)(C)C)C(=O)N2CCc3c([nH]c4ccc(Cl)cc34)[C@]12C)C(C)C | active
CCc1ccccc1NC(=S)N(CCN1CCCCCC1)Cc1ccco1 | inactive
Cc1c(C(=O)Nc2ccccn2)oc2ccc(Br)cc12 | inactive
CC(C)N(C(=O)[C@H]1C[C@H](CC(=O)NCCC2=CCCCC2)C(=O)N2CCc3c([nH]c4cc(CCC(=O)N(C)C)ccc34)[C@]12C)C(C)C | inactive
Cc1ccc(NC(=S)N(CCCN2CCCC2)Cc2cccn2Cc2ccc(Cl)cc2)cc1 | active
CCCCc1ccc(S(=O)(=O)NC(=O)C2(C)CCN2C(=O)c2c(C)noc2C)cc1 (centres undefined) | inactive
